tested on: HCC-2998 colon; test: NCI tumour cell line growth inhibition, 48 h
Reported TGI values for a set of compounds
Measured Quantity: TGI (µM)

Compound	Target Desc	Unit Info	Limit Sign	Endpoint Result
CNC(=O)NCC1OC(n2cnc3c(NC(=O)Nc4ccccc4)ncnc32)C(O[Si](C)(C)C(C)(C)C)C1O[Si](C)(C)C(C)(C)C (centres undefined)	HCC-2998 colon	µM	=	3.75
CCOc1ccc2c(-c3ccnc(Nc4cc(OC)cc(C(F)(F)F)c4)n3)cnn2n1	HCC-2998 colon	µM	>	25
Clc1sc(Cl)c2c1[C@@H](Cl)C[C@@H]2Cl	HCC-2998 colon	µM	>	100
COc1cc2cc(C(=O)N3CC(COS(C)(=O)=O)c4ccc(NC(=O)OCc5ccccc5)cc43)[nH]c2c(OC)c1OC (centres undefined)	HCC-2998 colon	µM	>	100
C/C=C(\C)C(=O)OC1CC(OC(C)=O)C2(C(=O)OC)COC3C2C1(C)C1C2(C(=O)OC)OCC1(C3O)C1(O)C3CC(C4(O)C=COC4O3)C1(C)O2 (centres undefined)	HCC-2998 colon	µM	>	100
CN(C)c1ccc(Nc2c3ccccc3nc3ccccc23)cc1	HCC-2998 colon	µM	=	3.93
O=C(Oc1cccc(Cl)c1)c1ccccc1Nc1ccnc(C(F)(F)F)c1	HCC-2998 colon	µM	=	6.66
COc1ccccc1-n1c(=O)n(C)c(=O)n1C(C)(C)C	HCC-2998 colon	µM	>	100
CC[C@@]1(O)C(=O)OCc2c1cc1n(c2=O)Cc2c-1nc1ccc(O)cc1c2[Si](C)(C)C(C)(C)C	HCC-2998 colon	µM	=	0.401
